The reported measurements were obtained from patent US20230381281A1.

# TARGET OR SYSTEM: T1, human GIP receptor (human, UniProt P48546 22-466)
# T1 sequence (looked up): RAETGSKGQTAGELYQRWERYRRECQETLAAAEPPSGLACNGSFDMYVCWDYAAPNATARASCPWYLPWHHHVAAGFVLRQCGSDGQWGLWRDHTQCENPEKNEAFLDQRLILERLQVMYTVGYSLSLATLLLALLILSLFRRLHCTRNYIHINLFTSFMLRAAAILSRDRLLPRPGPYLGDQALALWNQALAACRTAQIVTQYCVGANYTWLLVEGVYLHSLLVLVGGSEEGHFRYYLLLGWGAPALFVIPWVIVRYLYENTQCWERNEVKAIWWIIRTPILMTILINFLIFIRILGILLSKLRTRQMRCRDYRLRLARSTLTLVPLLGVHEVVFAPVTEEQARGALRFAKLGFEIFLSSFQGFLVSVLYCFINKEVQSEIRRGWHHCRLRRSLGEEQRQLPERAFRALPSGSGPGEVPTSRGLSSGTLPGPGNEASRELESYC
# ASSAY METHOD TEXT: cell-based or functional assay
Bridge positions count the residues as written; N and C are the ends. Square brackets hold non-standard residues; d marks the D form. Ends that are not written are not given here. Aib = CC(C)(N)C(=O)O
MEASUREMENT KIND: In vitro activity compared to native peptide (%) vs GIP
The reply should be a number in %, with the unit left off.

What does the record list as In vitro activity compared to native peptide (%) vs GIP for H[Aib]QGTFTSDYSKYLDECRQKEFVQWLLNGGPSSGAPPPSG (bridge 16-20) [Triple agonist of SEQ ID NO: 37] ?
2.2

Quick one: In vitro activity compared to native peptide (%) vs GIP for H[Aib]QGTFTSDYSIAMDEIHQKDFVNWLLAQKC (bridge 16-20) [Triple agonist of SEQ ID NO: 33] ?
10.4

Give its In vitro activity compared to native peptide (%) vs GIP value. Item: Y[Aib]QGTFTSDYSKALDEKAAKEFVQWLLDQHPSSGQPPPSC (bridge 16-20) [Triple agonist of SEQ ID NO: 100]
118

I'd like to know its In vitro activity compared to native peptide (%) vs GIP. The binder in question is H[Aib]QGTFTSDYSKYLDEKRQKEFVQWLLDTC (bridge 16-20) [Triple agonist of SEQ ID NO: 52]
0.3
